All figures here come from paper PMC6683251.

Examples of molecules with documented Tmax follow.
# test details: Plasma nutrikinetics of flavanol metabolites after a single serving of soluble cocoa product (HPLC-ESI-QToF-MS)
# Assay type: in vivo, human
# study conditions: both sexes, oral; human plasma, after CC-PP (68.25 mg flavanols), mean ± SD, n = 13; read-out: Tmax
# Procedure: The study was carried out in thirteen healthy subjects (3 men and 10 women); the mens’ average age and body mass index were 26.67 ± 3.21 year and 22.47 ± 2.97 kg/m^2, respectively, and womens’ were 32.60 ± 9.85 year and 23.36 ± 3.73 kg/m^2, respectively. They were non-smoker, non-vegetarian, non-pregnant women, who were not taking any medication or nutritional supplements, and were not suffering from any chronic pathology or gastrointestinal disorder. […]
Give the value in h but do not write h after it.

Sample records with Tmax:
1. O=S(=O)(O)Oc1cc([C@H]2Oc3cc(O)cc(O)c3C[C@H]2O)ccc1O [Epicatechin-3′-sulfate]: 1.2
2. COc1cc([C@H]2Oc3cc(OS(=O)(=O)O)cc(O)c3C[C@H]2O)ccc1O (single isomer, unassigned) [Epicatechin-methoxy-sulfate (isomer 2), Epicatechin-methoxy-sulfate]: 1.3
3. O=C1CCC(Cc2ccc(O)c(O)c2)O1 (stereo not shown): 5.5

Item: O=C1CCC(Cc2cccc(OS(=O)(=O)O)c2)O1 (stereo not shown) [PVL-3′-sulfate, 5-Phenyl-γ-valerolactone-3′-sulfate] | Tmax: 5.2

Item: O=C1CCC(Cc2ccc(O)c(OC3OC(C(=O)O)C(O)C(O)C3O)c2)O1 (stereo not shown) [HPVL-3′-glucuronide] | Tmax: 5

Item: O=C(O)C1OC(Oc2cc(C3Oc4cc(O)cc(O)c4CC3O)ccc2O)C(O)C(O)C1O (stereo not shown) [Epicatechin-3′-glucuronide] | Tmax: 1.4

Item: COc1cc([C@H]2Oc3cc(O)cc(OS(=O)(=O)O)c3C[C@H]2O)ccc1O (single isomer, unassigned) [Epicatechin-methoxy-sulfate (isomer 1), Epicatechin-methoxy-sulfate] | Tmax: 1.1

----------
# test details: Urinary excretion of flavanol metabolites (0-24 h) after a single serving of soluble cocoa product (HPLC-ESI-QToF-MS)
# Assay type: in vivo, human
# study conditions: after CC-PP (68.25 mg flavanols), 24 h urine, mean ± SD, n = 13
endpoint label: Excreted in urine, Total (µmol)
Give the value in µmol but do not write µmol after it.

Sample records with Excreted in urine, Total:
1) O=C(O)Cc1cccc(O)c1 [Hydroxyphenylacetic acid, 3-Hydroxyphenylacetic acid]: 2.862
2) COc1cc(CC(=O)O)ccc1O [3-Methoxy-4-hydroxyphenylacetic acid]: 0.648
3) O=C(O)C1OC(Oc2cc(C3Oc4cc(O)cc(O)c4CC3O)ccc2O)C(O)C(O)C1O (centres unmarked) [Epicatechin-3′-glucuronide]: 1.653
4) O=C(O)Cc1ccc(O)c(O)c1 [3,4-Dihydroxyphenylacetic acid]: 2.153
5) COc1ccc([C@H]2Oc3cc(O)cc(OS(=O)(=O)O)c3C[C@H]2O)cc1O (single isomer, unassigned) [Epicatechin-methoxy-sulfate (isomer 3), Epicatechin-methoxy-sulfate]: 2.354
6) O=C(O)CCc1ccc(O)cc1 [Hydroxyphenylpropionic acid]: 1.204

Next:
Item: O=C1CCC(Cc2ccc(O)c(OC3OC(C(=O)O)C(O)C(O)C3O)c2)O1 (centres unmarked) [HPVL-3′-glucuronide] | Excreted in urine, Total: 2.358

----------
# test details: Urinary excretion of flavanol metabolites (0-24 h) after a single serving of soluble cocoa product (HPLC-ESI-QToF-MS)
# Format: in vivo, human
# study conditions: after CC (19.80 mg flavanols), mean ± SD, n = 13
endpoint label: Excreted in urine, 12–24 h

1) COc1cc([C@H]2Oc3cc(O)cc(OS(=O)(=O)O)c3C[C@H]2O)ccc1O (single isomer, unassigned) [Epicatechin-methoxy-sulfate (isomer 1), Epicatechin-methoxy-sulfate]: 0.257 ± 0.114 µmol
2) O=S(=O)(O)Oc1cc([C@H]2Oc3cc(O)cc(O)c3C[C@H]2O)ccc1O [Epicatechin-3′-sulfate]: <L.Q.
3) O=C(O)C1OC(Oc2cc(C3Oc4cc(O)cc(O)c4CC3O)ccc2O)C(O)C(O)C1O (stereo not drawn) [Epicatechin-3′-glucuronide]: <L.Q.
